Source of measurements: PubChem BioAssay

# TARGET_OR_TEST_SYSTEM: Alpha-bungarotoxin (Bungarus multicinctus)
# TEST_DETAILS: alpha-bungarotoxin binders on microarray, profiling panel, artefact control for SMM control protein annotation, biochemical, small-molecule microarray, Alexa647 label, 635/667 nm fluorescence (AID 1117)
# ASSAY_CONTEXT: alpha-BTX-A647 binding fluorescence, higher = more signal
Record met whenever composite z-score is at 0.5 or higher; record not met when lower.

Below, 2 molecules whose answers are already recorded.
MOLECULE	CLASS_ASSIGNMENT
C=C(CC1([C@@H](NP(=O)(c2ccccc2)c2ccccc2)[C@H]2C[C@@H]2CCCC)CC1)c1cccc(OC)c1	not met
O=C1O[C@@H](c2ccccc2)[C@@H](c2ccccc2)N2[C@@H](c3ccccc3OCCO)[C@]3(C(=O)Nc4ccc(C#CC5(O)CCCCCC5)cc43)[C@@H](C(=O)N3CCCCCCC3)[C@H]12	met

Does composite z-score meet or surpass 0.5 for COc1ccc(CCNC(=O)[C@@]2(c3ccc([N+](=O)[O-])cc3)CC(=O)N(C3CCCCC3)[C@@H]2c2ccc(CO)cc2I)cc1 ?
not met

Does composite z-score meet or surpass 0.5 for COCCOC(=O)N1C(=O)[C@@]2(c3cc(C#CCNC(N)=O)ccc31)[C@H](C(=O)N1CCN(c3ncccn3)CC1)[C@H]1C(=O)O[C@H](c3ccccc3)[C@H](c3ccccc3)N1[C@@H]2c1ccc(O)cc1 ?
not met

Does composite z-score meet or surpass 0.5 for CC(C)C[C@H]1NC(=O)CNC(=O)[C@@]23C(=O)N[C@@H](Cc4ccccc4)C2[C@H](C)[C@@]2(C)O[C@H]2C3/C=C/C/C=C\CNC1=O (stereo not given in full) ?
not met

Does composite z-score meet or surpass 0.5 for COc1cc(Cc2cc3c(c(CCc4ccccc4)n2)[Si](C(C)C)(C(C)C)O[C@H]3c2ccccc2)cc(OC)c1OC ?
met

Does composite z-score meet or surpass 0.5 for Cc1ccc(S[C@]2(C(=O)NC(C)C)CC(=O)N(Cc3ccccc3)[C@@H]2c2ccc(CO)cc2)cc1 ?
not met

Does composite z-score meet or surpass 0.5 for C=C(CCCC)C(=O)CC[C@H](OC(=O)c1ccccc1-c1ccccc1C(=O)O)c1cccc(OCCO)c1 ?
not met
